Origin of values: the supplement of paper PMC10724198

- Tested on: Saccharomyces cerevisiae;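 also: PSI is a weighted mean of sequencing reads over stability bins, variants kept only with over 10 reads, mCherry proximal and sfGFP distal, peptide attached via GGGS linker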
- PROTOCOL SUMMARY: protein stability index of tFT-peptide fusion (C-terminal peptide) (PSI (0-1 scale)); higher = more stable (slower turnover)
- EXPERIMENTAL SETUP: genetic background: wild type; temperature: 30 C
RECORDED ENDPOINT: protein stability index
I only need the number, thanks.

ORDERED RESIDUES | protein stability index
GLCPALQFPLHE | 0.68

[Q] I would be grateful if you could share the reported protein stability index for PPPPPLPPPSPF .
[A] 0.734

[Q] I would be grateful if you could share the reported protein stability index for REKQRYEERLRE .
[A] 0.636

[Q] I would be grateful if you could share the reported protein stability index for IHEGIKNENFKR .
[A] 0.71
